Assay: in vivo
Details: monkey, crab-eating monkeys, intravenous, 1 mg/kg, plasma, read-out: Intravenous injection AUClast
Below: a set of entries, each annotated with reported AUC(0-t).
Readout type: AUC(0-t)

compound="[2H]C([2H])([2H])n1cc2cc(Nc3nc(=O)n(-c4cncc(Cl)c4)c(=O)n3Cc3cc(F)c(F)cc3F)c(Cl)cc2n1 [Compound 5]" result="38400 ng·h/mL"
compound="O=c1nc(Nc2cc3cn(CCO)nc3cc2Cl)n(Cc2cc(F)c(F)cc2F)c(=O)n1-c1cncc(Cl)c1 [Compound 4]" result="10300 ng·h/mL"
compound="[2H]C([2H])([2H])n1cc2cc(Nc3nc(=O)n(-c4cncc(Cl)c4)c(=O)n3Cc3cc(F)c(F)cc3F)c(Br)cc2n1 [Compound 6]" result="35700 ng·h/mL"
